tested on: MOLT-4; test: NCI tumour cell line growth inhibition, 48 h
Active and inactive are the calls of the source. No stated cut-off is given here; in the data, active = GI50 up to about 1.1 µM and inactive = higher.
Labels: active, inactive

>>> assigned_class("N#CC1CCCC2SC(F)(F)C(F)(F)C12 (stereo not given)")
"inactive"
>>> assigned_class("COc1cccc(/C=C2\\CCC(CCN(C)C)(C3=CCCC3)C2=O)c1 (stereo not given)")
"inactive"
>>> assigned_class("N#CC1=C(N)OC2=C(CCCc3ccc([N+](=O)[O-])cc32)C1c1ccc(Cl)cc1 (stereo not given)")
"inactive"
>>> assigned_class("COCOc1ccc(OC)cc1")
"inactive"
>>> assigned_class("C#CC1(O)C(COP(=O)(O)OC(COCCCCCCCCCCCCCCCCCC)COP(=O)(O)OCC2OC(n3cc(C)c(=O)[nH]c3=O)CC2N=[N+]=[N-])OC(n2ccc(N)nc2=O)C1O (stereo not given)")
"active"
>>> assigned_class("O=C(CSc1nnc(Cc2ccccc2)o1)Nc1ccc(Cl)cc1")
"inactive"
>>> assigned_class("CC(Oc1ccccc1Cl)C(=O)NN1C(=O)CSC1c1ccccc1 (stereo not given)")
"inactive"
>>> assigned_class("C/C(=N/NC(=S)Nc1ccccc1Cl)c1ccccn1")
"active"
>>> assigned_class("CC(=O)CC12NC(=O)N(C)N=C1N(C)C(=O)N(C)C2=O (stereo not given)")
"inactive"
>>> assigned_class("Cc1ccc(/C=N/n2c(Cc3ccccc3)n[nH]c2=O)cc1")
"inactive"
>>> assigned_class("CCCN(CCCCC(NC(C)=O)C(=O)NCc1ccccc1)C(=O)N(CCCl)N=O (stereo not given)")
"inactive"
>>> assigned_class("COC(=O)c1ccccc1C1CN=NC12Cc1ccc(C)cc1C2=O (stereo not given)")
"inactive"
>>> assigned_class("COc1ccc(C#CCC(OC2OC(CO)C(O)C(O)C2O)C(O)c2ccc(OC)c(OC)c2)cc1OC (stereo not given)")
"inactive"
>>> assigned_class("COC1OC(CO)C(O)C1N (stereo not given)")
"inactive"
>>> assigned_class("O=C(CC1(O)C(=O)Nc2c(Cl)cc(Cl)cc21)c1ccc(Br)cc1Br (stereo not given)")
"inactive"
